Molecular target: T1, human CD3e/g antigen (ACRO, catalog number CDG-H52W5) (human, UniProt P07766 23-126; P09693 23-116)
T1 construct: Bought reagent used as the Biacore analyte; also called hCD3e/g
Experiment: SPR (Biacore 8K), antibody captured via anti-human Fc
Catalogue of kon values

Example cases with answers are listed next.
[[record]]
binder = "hAb007-26 (antibody, V domains shown, Humanized; constant regions not specified) VH: QVQLVQSGAEVKKPGASVKVSCKASGSTFTDNYIHWVRQAPGQRLEWIGWIYPGSVNIKYNEKFKDRATITADTSASTAYMELSSLRSEDTAVYYCARDISRYYFDYWGQGTTVTVSS VL: DIVMTQSPDSLAVSLGERATINCKSSQSLLNSRTRKNYLAWYQQKPGQPPKLLIYWASTRESGVPDRFTGSGSGTDFTLTISSLQAEDVAVYYCKQSFILRTFGGGTKLEIK"
reported_result = "470000 M⁻¹ s⁻¹"

[[record]]
binder = "hAb001-18 (antibody, V domains shown, Humanized; constant regions not specified) VH: QVQLVQSGAEVKKPGASVKVSCKASGYSFTNYYMHWVRQAPGQRLEWMGWTYPGNNNIKYNEKFKGRVTITRDTSASTAYMELSSLRSEDTAVYYCARDGYGYYFFDYWGQGTLVTVSS VL: DIVMTQSPDSLAVSLGERATINCKSSQSLLNNRTRKNYLAWYQQKPGQPPKLLIYWASTRESGVPDRFTGSGSGTDFTLTISSLQAEDVAVYYCKQSYTLRTFGGGTKLEIK"
reported_result = "343000 M⁻¹ s⁻¹"

[[record]]
binder = "hAb008-18 (antibody, V domains shown, Humanized; constant regions not specified) VH: QVQLVQSGAEVKKPGASVKVSCKASGYTFTDYTVNWVRQAPGQRLEWMGYINPFNSYTKYNQKFKDRVTITRDTSASTAYMELSSLRSEDTAVYYCARSVSTYWGQGTTVTVSS VL: DVVMTQSPLSLPVTLGQPASISCKSSQSLLDSDGKTYLNWLQQRPGQSPRRLIQLVSKLNSGVPDRFSGSGSGTDFTLKISRVEAEDVGVFYCWQGTHFPRTFGGGTKLEIK"
reported_result = "204000 M⁻¹ s⁻¹"

[[record]]
binder = "hAb008-21 (antibody, V domains shown, Humanized; constant regions not specified) VH: QVQLVQSGAEVKKPGASVKVSCKASGYTFTDYTVNWVRQAPGQRLEWIGYINPFNSYTKYNQKFKDRVTITADTSASTAYMELSSLRSEDTAVYYCANSVSTYWGQGTTVTVSS VL: DVVMTQSPLSLPVTLGQPASISCKSSQSLLDSDGKTYLNWFQQRPGQSPRRLIQLVSKLNSGVPDRFSGSGSGTDFTLKISRVEAEDVGVFYCWQGTHFPRTFGGGTKLEIK"
reported_result = "205000 M⁻¹ s⁻¹"


Turning now to a further record.
Ask: Recorded kon for hAb008-17 (antibody, V domains shown, Humanized; constant regions not specified) VH: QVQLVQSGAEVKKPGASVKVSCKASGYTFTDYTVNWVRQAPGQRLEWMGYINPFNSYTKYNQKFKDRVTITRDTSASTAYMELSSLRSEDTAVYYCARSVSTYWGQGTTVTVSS VL: DVVMTQSPLSLPVTLGQPASISCKSSQSLLDSDGKTYLNWFQQRPGQSPRRLIQLVSKLNSGVPDRFSGSGSGTDFTLKISRVEAEDVGVFYCWQGTHFPRTFGGGTKLEIK , please?
Result: 167000 M⁻¹ s⁻¹
